Target: hERG (KCNH2) (Homo sapiens, UniProt Q12809)
Sequence (Q12809 whole entry): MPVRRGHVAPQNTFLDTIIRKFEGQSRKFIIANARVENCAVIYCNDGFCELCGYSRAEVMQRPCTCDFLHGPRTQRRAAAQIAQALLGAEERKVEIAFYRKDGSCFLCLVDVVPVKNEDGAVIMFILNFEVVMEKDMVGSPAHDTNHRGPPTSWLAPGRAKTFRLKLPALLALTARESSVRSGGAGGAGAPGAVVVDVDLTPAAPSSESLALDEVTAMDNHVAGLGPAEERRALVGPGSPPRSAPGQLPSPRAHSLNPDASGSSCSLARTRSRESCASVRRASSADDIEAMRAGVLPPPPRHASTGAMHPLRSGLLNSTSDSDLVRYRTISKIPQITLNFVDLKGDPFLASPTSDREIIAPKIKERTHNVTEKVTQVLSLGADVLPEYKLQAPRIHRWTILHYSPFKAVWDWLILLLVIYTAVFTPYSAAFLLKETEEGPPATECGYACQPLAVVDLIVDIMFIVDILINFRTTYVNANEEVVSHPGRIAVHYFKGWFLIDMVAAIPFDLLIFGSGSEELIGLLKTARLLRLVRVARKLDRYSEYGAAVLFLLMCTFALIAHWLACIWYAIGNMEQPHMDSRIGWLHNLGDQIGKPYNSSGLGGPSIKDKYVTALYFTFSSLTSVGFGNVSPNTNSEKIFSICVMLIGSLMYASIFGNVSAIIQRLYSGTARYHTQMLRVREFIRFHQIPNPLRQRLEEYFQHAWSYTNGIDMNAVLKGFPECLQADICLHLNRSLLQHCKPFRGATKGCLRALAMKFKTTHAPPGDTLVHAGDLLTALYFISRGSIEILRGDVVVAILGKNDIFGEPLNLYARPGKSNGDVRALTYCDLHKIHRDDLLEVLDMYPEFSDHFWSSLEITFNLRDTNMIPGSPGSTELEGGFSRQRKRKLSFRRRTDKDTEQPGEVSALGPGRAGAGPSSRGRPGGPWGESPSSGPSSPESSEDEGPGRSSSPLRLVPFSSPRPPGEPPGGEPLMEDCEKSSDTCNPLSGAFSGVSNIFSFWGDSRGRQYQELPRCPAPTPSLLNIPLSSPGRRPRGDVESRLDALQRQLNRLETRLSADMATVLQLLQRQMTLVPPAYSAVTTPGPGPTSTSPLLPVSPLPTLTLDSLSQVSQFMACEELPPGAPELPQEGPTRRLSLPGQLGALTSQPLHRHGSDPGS
Experiment: Inhibition of human ERG expressed in cell membranes at 1 uM after 4 hrs by fluorescence polarization assay
Conditions: cell membranes that express human ERG
The following compounds are listed with their measured inhibition at 4 h, 1 µM values.
experimental_endpoint: inhibition at 4 h, 1 µM

chemical_string=O=C(O)CCc1ccc(OCc2nnc(C(=O)Nc3ccccc3F)s2)cc1 experimental_result=9%
chemical_string=O=C(O)CCc1nnc(C(=O)Nc2cccc(-c3ccc(F)cc3)c2)s1 experimental_result=-6%
chemical_string=O=C(O)CCc1ccc(OCc2nnc(C(=O)Nc3cccc(Cl)c3)s2)cc1 experimental_result=1%
chemical_string=Cc1cccc(-c2cccc(NC(=O)c3nnc(CCC(=O)O)s3)c2)c1 experimental_result=8%

----------
Molecular target: UniProt P05177
Sequence (P05177 whole entry): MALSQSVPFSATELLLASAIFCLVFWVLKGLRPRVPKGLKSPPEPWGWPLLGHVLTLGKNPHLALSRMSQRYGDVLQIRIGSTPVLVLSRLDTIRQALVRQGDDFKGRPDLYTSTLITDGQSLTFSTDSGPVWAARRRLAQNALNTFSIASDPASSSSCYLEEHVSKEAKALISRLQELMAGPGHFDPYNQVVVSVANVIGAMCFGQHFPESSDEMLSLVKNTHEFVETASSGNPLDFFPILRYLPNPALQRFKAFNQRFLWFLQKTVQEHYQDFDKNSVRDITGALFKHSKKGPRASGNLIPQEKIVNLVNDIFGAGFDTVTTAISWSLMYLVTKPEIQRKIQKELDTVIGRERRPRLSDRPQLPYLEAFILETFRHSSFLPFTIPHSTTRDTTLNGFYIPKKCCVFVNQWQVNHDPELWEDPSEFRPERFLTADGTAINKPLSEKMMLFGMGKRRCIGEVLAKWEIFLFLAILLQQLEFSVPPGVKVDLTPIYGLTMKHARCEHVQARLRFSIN
Test: Inhibition of CYP1A2 (unknown origin) at 20 uM by P450-glo assay
Assay type: ADME
The following molecules are listed with their measured inhibition at 20 µM values.
experimental_endpoint: inhibition at 20 µM (%)

chemical_string=O=C(O)CCc1ccc(OCc2nnc(C(=O)Nc3cccc(Cl)c3)s2)cc1 readout_units=% experimental_result=41.9
chemical_string=O=C(O)CCc1nnc(C(=O)Nc2cccc(-c3ccc(F)cc3)c2)s1 readout_units=% experimental_result=47.2
chemical_string=Cc1cccc(-c2cccc(NC(=O)c3nnc(CCC(=O)O)s3)c2)c1 readout_units=% experimental_result=94.3
chemical_string=O=C(O)CCc1ccc(OCc2nnc(C(=O)Nc3ccccc3F)s2)cc1 readout_units=% experimental_result=18.8

----------
Assay: Metabolic stability in BALB/c mouse liver microsomes at 2 uM after 40 mins by HPLC analysis
Format: ADME
The following compounds are listed with their measured half-life at 2 µM values.
experimental_endpoint: half-life at 2 µM (min)

chemical_string=O=C(O)CCc1nnc(C(=O)Nc2cccc(-c3ccc(F)cc3)c2)s1 experimental_endpoint="half-life at 2 µM" experimental_result=209
chemical_string=Cc1cccc(-c2cccc(NC(=O)c3nnc(CCC(=O)O)s3)c2)c1 experimental_endpoint="half-life at 2 µM" experimental_result=77.5
chemical_string=O=C(O)CCc1ccc(OCc2nnc(C(=O)Nc3cccc(Cl)c3)s2)cc1 experimental_endpoint="half-life at 2 µM" experimental_result=13.2
chemical_string=O=C(O)CCc1ccc(OCc2nnc(C(=O)Nc3ccccc3F)s2)cc1 experimental_endpoint="half-life at 2 µM" experimental_result=6.9

----------
Target: CYP2C9 (Homo sapiens, UniProt P11712)
Sequence (P11712 whole entry): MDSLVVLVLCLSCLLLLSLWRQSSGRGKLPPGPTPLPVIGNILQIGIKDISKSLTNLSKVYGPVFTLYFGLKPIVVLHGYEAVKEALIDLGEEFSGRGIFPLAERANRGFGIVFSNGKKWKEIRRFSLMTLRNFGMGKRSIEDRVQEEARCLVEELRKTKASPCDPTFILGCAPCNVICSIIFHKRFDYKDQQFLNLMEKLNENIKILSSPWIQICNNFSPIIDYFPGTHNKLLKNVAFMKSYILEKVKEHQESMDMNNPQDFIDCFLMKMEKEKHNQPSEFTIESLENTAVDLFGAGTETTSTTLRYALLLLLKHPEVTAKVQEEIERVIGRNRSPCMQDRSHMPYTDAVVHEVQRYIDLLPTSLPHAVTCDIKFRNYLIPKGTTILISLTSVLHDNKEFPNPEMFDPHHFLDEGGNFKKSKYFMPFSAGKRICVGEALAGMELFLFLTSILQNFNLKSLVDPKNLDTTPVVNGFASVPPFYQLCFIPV
Assay: Inhibition of CYP2C9 (unknown origin) at 20 uM by P450-glo assay
Format: ADME
The following molecules are listed with their measured inhibition at 20 µM values.
experimental_endpoint: inhibition at 20 µM (%)

chemical_string=Cc1cccc(-c2cccc(NC(=O)c3nnc(CCC(=O)O)s3)c2)c1 experimental_endpoint="inhibition at 20 µM" readout_units=% experimental_result=9.8
chemical_string=O=C(O)CCc1nnc(C(=O)Nc2cccc(-c3ccc(F)cc3)c2)s1 experimental_endpoint="inhibition at 20 µM" readout_units=% experimental_result=-1.9
chemical_string=O=C(O)CCc1ccc(OCc2nnc(C(=O)Nc3ccccc3F)s2)cc1 experimental_endpoint="inhibition at 20 µM" readout_units=% experimental_result=12.8
chemical_string=O=C(O)CCc1ccc(OCc2nnc(C(=O)Nc3cccc(Cl)c3)s2)cc1 experimental_endpoint="inhibition at 20 µM" readout_units=% experimental_result=85

----------
Test: Distribution coefficient, log D of the compound at pH 7.4 by LC-MS/MS analysis
Type: physicochemical
Settings: octanol/water
experimental_endpoint: logD

chemical_string=O=C(O)CCc1ccc(OCc2nnc(C(=O)Nc3cccc(Cl)c3)s2)cc1 experimental_result=1.46
chemical_string=O=C(O)CCc1nnc(C(=O)Nc2cccc(-c3ccc(F)cc3)c2)s1 experimental_result=0.96
chemical_string=Cc1cccc(-c2cccc(NC(=O)c3nnc(CCC(=O)O)s3)c2)c1 experimental_result=1.28
chemical_string=O=C(O)CCc1ccc(OCc2nnc(C(=O)Nc3ccccc3F)s2)cc1 experimental_result=0.95

----------
The following compounds are listed with their measured inhibition at 4 h, 20 µM values.
Target: UniProt:Q12809
Assay: Inhibition of human ERG expressed in cell membranes at 20 uM after 4 hrs by fluorescence polarization assay
Conditions: cell membranes that express human ERG
experimental_endpoint: inhibition at 4 h, 20 µM (%)

chemical_string=O=C(O)CCc1nnc(C(=O)Nc2cccc(-c3ccc(F)cc3)c2)s1 system_name=UniProt:Q12809 readout_units=% experimental_result=-1
chemical_string=O=C(O)CCc1ccc(OCc2nnc(C(=O)Nc3cccc(Cl)c3)s2)cc1 system_name=UniProt:Q12809 readout_units=% experimental_result=36
chemical_string=O=C(O)CCc1ccc(OCc2nnc(C(=O)Nc3ccccc3F)s2)cc1 system_name=UniProt:Q12809 readout_units=% experimental_result=4
chemical_string=Cc1cccc(-c2cccc(NC(=O)c3nnc(CCC(=O)O)s3)c2)c1 system_name=UniProt:Q12809 readout_units=% experimental_result=22
